Read-out: Bcl-2 (BID) gene, BID (gene 637)
assay_details: LTEA_HepaRG_BID: Life Technologies and Expression Analysis (LTEA) Assay for Bcl-2 (BID) gene using HepaRG (AID 2283476)
measurement_conditions: mRNA level, 48 h; actives raise or lower the signal
The source made the active and inactive calls. The calls were made as follows: active = hit-call score of the fitted dose curve at least 0.9, where 1 is the maximum; inactive = score below 0.9.
Outcome codes: active, inactive

| structure_string | qualitative_label |
| --- | --- |
| CCC(C)(c1ccc(O)cc1)c1ccc(O)cc1 | inactive |
| Oc1c(Cl)c(Cl)c(Cl)c(Cl)c1Cl | active |
| CCOP(=S)(OCC)SCSC(C)(C)C | inactive |
| CCOCCOC(C)=O | inactive |
| CO/C=C(/C(=O)OC)c1ccccc1COc1cccc(C(F)(F)F)n1 | inactive |
| Oc1ccc(C(c2ccc(O)cc2)(C(F)(F)F)C(F)(F)F)cc1 | inactive |
| CC(C)(c1ccccc1)c1ccc(O)cc1 | inactive |

---

Read-out: Plasminogen activator inhibitor-1 (PAI1), SERPINE1 (gene 5054)
assay_details: BSK_BE3C_PAI1: BioMAP Diversity Plus: BE3C Assay for Plasminogen activator inhibitor-1 (PAI1) Biomarker Activity (AID 2283037)
measurement_conditions: primary human bronchial epithelial cells; actives raise or lower the signal
The source made the active and inactive calls. Rule for the calls: active = hit-call score of the fitted dose curve at least 0.9, where 1 is the maximum; inactive = score below 0.9.

| compound | outcome |
| --- | --- |
| C[C@]12CCC(=O)C=C1CC[C@@H]1[C@@H]2CC[C@]2(C)C(=O)CC[C@@H]12 | inactive |
| C1CC2OC2CC1C1CO1 (configuration not stated) | inactive |
| Cc1cc(-c2ccc(N)c(C)c2)ccc1N | inactive |
| CCCCCCCCOC(=O)c1ccccc1C(=O)OCCCCCCCC | inactive |
| CCCN(CCC)N=O | inactive |
| Cc1ccccc1O | inactive |
| CCNc1nc(NC(C)C)nc(SC)n1 | inactive |

---

Read-out: Interleukin-8 (IL8), CXCL8 (gene 3576)
assay_details: BSK_CASM3C_IL8: BioMAP Diversity Plus: CASM3C Assay for Interleukin-8 (IL8) Biomarker Activity (AID 2283042);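 also: IL-8 protein level quantified by ELISA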
measurement_conditions: primary human coronary artery smooth muscle cells; actives raise or lower the signal
Calls of active or inactive are those of the source. How the source made its calls: active means hit-call score of the fitted dose curve at least 0.9, where 1 is the maximum; inactive means score below 0.9.
Outcome codes: YES for active, NO for inactive

| compound | qualitative_label |
| --- | --- |
| Cc1ccccc1[N+](=O)[O-] | NO |
| Cc1ccccc1O | NO |
| CCCCCCOC(=O)c1ccccc1C(=O)OCCCCCC | NO |
| C[C@]12CCC(=O)C=C1CC[C@@H]1[C@@H]2CC[C@@]2(C)[C@H]1CC[C@]2(C)O | NO |
| CCOC(=O)C(O)(c1ccc(Cl)cc1)c1ccc(Cl)cc1 | NO |
| CC#Cc1cc(C)nc(Nc2ccccc2)n1 | NO |
| CCCN(CCC)N=O | NO |
| CCC(C)(CC)c1cc(NC(=O)c2c(OC)cccc2OC)on1 | NO |
| CCSC(=O)N(CC)C1CCCCC1 | NO |
| Oc1ccc(Cl)cc1Cl | NO |
| CN(C)CCO | NO |
| O=C(O)C(F)(F)C(F)(F)C(F)(F)C(F)(F)C(F)(F)C(F)(F)C(F)(F)C(F)(F)C(F)(F)F | NO |
| CC(c1ccc(O)cc1)(c1ccc(O)cc1)c1ccc(O)cc1 | NO |
| CCOCCOC(C)=O | NO |
| Oc1ccc(C(c2ccc(O)cc2)(C(F)(F)F)C(F)(F)F)cc1 | NO |
| C1CC2OC2CC1C1CO1 (stereo not drawn) | NO |
| O=S(=O)(O)C(F)(F)C(F)(F)C(F)(F)C(F)(F)F | NO |
| C[C@]12CCC(=O)C=C1CC[C@@H]1[C@@H]2CC[C@]2(C)C(=O)CC[C@@H]12 | NO |
| Cc1cccc([N+](=O)[O-])c1 | NO |
| Cc1ccccc1CO[C@@H]1C[C@@]2(C(C)C)CC[C@]1(C)O2 | NO |
| CCNc1nc(NC(C)C)nc(SC)n1 | NO |
| CCOP(=S)(OCC)SCSC(C)(C)C | NO |
| c1ccc(-c2ccccc2)cc1 | NO |
| Cc1ccc(O)c(C)c1 | NO |
| CCCCCCCCCc1ccc(O)cc1 | YES |
| O=C(O)C(F)(F)C(F)(F)C(F)(F)C(F)(F)C(F)(F)C(F)(F)C(F)(F)C(F)(F)F | NO |
| CC1=C2C[C@H]3[C@@H](CC=C4C[C@@H](O)CC[C@@]43C)[C@@H]2CC[C@]12O[C@@H]1C[C@H](C)CN[C@H]1[C@H]2C | NO |
| CC(C)(c1ccccc1)c1ccc(O)cc1 | NO |
| Clc1ccc(C(c2ccccc2Cl)C(Cl)(Cl)Cl)cc1 (stereo not drawn) | NO |
| ClC1=C(Cl)[C@]2(Cl)[C@@H]3[C@@H](Cl)[C@H]4O[C@H]4[C@@H]3C1(Cl)C2(Cl)Cl | NO |
| Clc1ccc(C(Cl)(Cl)Cl)cc1 | NO |
| Cc1cc(O)ccc1Cl | NO |
| NS(=O)(=O)C(F)(F)C(F)(F)C(F)(F)C(F)(F)C(F)(F)C(F)(F)C(F)(F)C(F)(F)F | NO |

Reference source for all entries: PubChem BioAssay (EPA / NIEHS)
